Biological target: L1 (DV1-GV4) antigen: soluble heterodimeric γδ TCR in leucine zipper format (TRDV1/TRGV4) (human)
Sequence (main, as listed by the source): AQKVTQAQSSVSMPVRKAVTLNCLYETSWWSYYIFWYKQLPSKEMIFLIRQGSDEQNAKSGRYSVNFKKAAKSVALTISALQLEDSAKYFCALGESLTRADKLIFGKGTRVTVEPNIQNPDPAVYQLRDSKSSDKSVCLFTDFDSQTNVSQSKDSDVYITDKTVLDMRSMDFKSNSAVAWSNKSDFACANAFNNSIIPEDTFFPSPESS
Experiment: ELISA (DELFIA, time-resolved fluorometry) on antigen L1, titration of the mAb
A collection of binders and their measured EC50 (read off the curve)
# value in µg/mL; strip the unit string

Here is how some binders turned out for EC50 (read off the curve).
Binder	EC50 (read off the curve) / µg/mL
AD3gly (defucosylated AD3 made in engineered CHO) (antibody, V domains shown) VH: EVQLQQSGPGLVKPSQTLSLTCAISGDSVSSKSAAWNWIRQSPSRGLEWLGRTYYRSKWSTDYAASVKSRITINPDTSKNQLSLQLNSVTPEDTAVYYCARTWSGYVDVWGQGTLVTVSS VL: DIQMTQSPPALSASVGDRVTITCRASQDINDWLAWYQHKPGKAPKLLIYDASSLESGVPSRFSGSGSGTEFTLTISSLQPDDFATYYCQQSYSTPQVTFGQGTRLEIK	0.07
AD3 (variant G04, made in CHO) (antibody, V domains shown) VH: EVQLQQSGPGLVKPSQTLSLTCAISGDSVSSKSAAWNWIRQSPSRGLEWLGRTYYRSKWSTDYAASVKSRITINPDTSKNQLSLQLNSVTPEDTAVYYCARTWSGYVDVWGQGTLVTVSS VL: DIQMTQSPPALSASVGDRVTITCRASQDINDWLAWYQHKPGKAPKLLIYDASSLESGVPSRFSGSGSGTEFTLTISSLQPDDFATYYCQQSYSTPQVTFGQGTRLEIK	0.07
1245_P02_G04 (IgG1, made in HEK) (antibody, V domains shown) VH: QVQLQQSGPGLVKPSQTLSLTCAISGDSVSSKSAAWNWIRQSPSRGLEWLGRTYYRSKWSTDYAASVKSRITINPDTSKNQLSLQLNSVTPEDTAVYYCARTWSGYVDVWGQGTLVTVSS VL: DIQMTQSPPALSASVGDRVTITCRASQDINDWLAWYQHKPGKAPKLLIYDASSLESGVPSRFSGSGSGTEFTLTISSLQPDDFATYYCQQSYSTPQVTFGQGTRLEIK	0.07

Below: the item to evaluate.
So what's the measured EC50 (read off the curve) for this one? AD4 (hinge modified AD3, made in CHO) (antibody, V domains shown) VH: EVQLQQSGPGLVKPSQTLSLTCAISGDSVSSKSAAWNWIRQSPSRGLEWLGRTYYRSKWSTDYAASVKSRITINPDTSKNQLSLQLNSVTPEDTAVYYCARTWSGYVDVWGQGTLVTVSS VL: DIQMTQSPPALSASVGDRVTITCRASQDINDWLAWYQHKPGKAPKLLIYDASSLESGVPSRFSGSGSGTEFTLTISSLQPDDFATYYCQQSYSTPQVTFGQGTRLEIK
0.07
